Every entry's value here was drawn from patent US20190284272A1.

# assay_system: T1, canine IL-31 protein (Canine_IL31)
# T1 chain: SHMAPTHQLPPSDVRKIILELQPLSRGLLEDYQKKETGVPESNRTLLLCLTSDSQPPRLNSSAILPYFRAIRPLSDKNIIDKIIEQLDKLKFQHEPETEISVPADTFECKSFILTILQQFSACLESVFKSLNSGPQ
# assay_overview: Biacore
Can you tell me Kd for the items I'm about to list?
Please state the figure in nM; there is no need to write the unit.

stdin: Please report the recorded Kd for Feline 15H05 1.1 FW2 (antibody, V domains shown) VH: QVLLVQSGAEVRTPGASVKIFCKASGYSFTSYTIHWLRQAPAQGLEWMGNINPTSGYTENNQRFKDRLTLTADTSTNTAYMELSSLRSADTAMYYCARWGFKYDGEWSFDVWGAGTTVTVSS VL: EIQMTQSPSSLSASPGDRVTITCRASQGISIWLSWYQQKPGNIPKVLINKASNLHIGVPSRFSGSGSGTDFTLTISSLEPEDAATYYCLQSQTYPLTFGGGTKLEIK .
stdout: 0.000431

stdin: Please report the recorded Kd for Feline 15H05 3.1 (antibody, V domains shown) VH: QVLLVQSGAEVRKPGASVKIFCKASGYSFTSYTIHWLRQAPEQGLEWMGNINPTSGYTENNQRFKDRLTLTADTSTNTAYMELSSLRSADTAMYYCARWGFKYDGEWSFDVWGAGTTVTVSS VL: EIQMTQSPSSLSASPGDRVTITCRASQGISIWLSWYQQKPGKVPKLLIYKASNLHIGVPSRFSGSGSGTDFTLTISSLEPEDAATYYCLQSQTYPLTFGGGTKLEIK .
stdout: 0.795

stdin: Please report the recorded Kd for Feline 11E12 1.1 (antibody, V domains shown) VH: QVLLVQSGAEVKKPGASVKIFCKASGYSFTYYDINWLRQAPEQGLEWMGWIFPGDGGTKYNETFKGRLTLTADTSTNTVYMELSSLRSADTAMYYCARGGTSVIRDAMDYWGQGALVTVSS VL: EIQMTQSPSSLSASPGDRVTITCRASESVDNYGISFMHWYQQKPGKVPKLLIYRASNLESGVPSRFSGSGSGTDFTLTISSLEPEDAATYYCQQSNKDPLTFGQGT .
stdout: 0.764

stdin: Please report the recorded Kd for Feline 15H05 1.1 FW1 (antibody, V domains shown) VH: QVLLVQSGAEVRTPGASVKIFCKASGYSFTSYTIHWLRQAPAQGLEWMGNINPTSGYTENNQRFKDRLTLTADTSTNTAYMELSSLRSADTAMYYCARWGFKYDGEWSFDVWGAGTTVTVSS VL: DIQMNQSPSSLSASLGDTITVTCRASQGISIWLSWYQQKPGKVPKLLIYKASNLHIGVPSRFSGSGSGTDFTLTISSLEPEDAATYYCLQSQTYPLTFGGGTKLEIK .
stdout: 813

stdin: Please report the recorded Kd for Feline 11E12 1.1 FW2 (antibody, V domains shown) VH: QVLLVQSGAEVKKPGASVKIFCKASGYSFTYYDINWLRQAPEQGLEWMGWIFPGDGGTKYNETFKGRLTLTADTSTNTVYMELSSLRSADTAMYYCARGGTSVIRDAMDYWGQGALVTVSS VL: EIQMTQSPSSLSASPGDRVTITCRASESVDNYGISFMHWYQQKPGQPPKLLIYRASNLESGVPSRFSGSGSGTDFTLTISSLEPEDAATYYCQQSNKDPLTFGQGT .
stdout: 7.02
